# Experiment Summary: Displacement of [35S]TBPS from GABAA receptor in Sprague-Dawley rat cortex membrane
# Format: cell membranes
pIC50: −log10 of the molar value.
Given measured pIC50, output Satisfied if it is greater than or equal to 7 and Not satisfied if not.

1. CCOC(=O)/C(=C\Nc1ccc(C)cc1)C(=O)c1ccccc1Cl: Not satisfied
2. CC(C)(C)NC(=O)/C(=C\Nc1ccc(Cl)cc1)C(=O)c1ccccc1Cl: Not satisfied
3. C#Cc1ccc(N/C=C(\C(=O)OCC)C(=O)c2ccccc2Cl)cc1: Satisfied
4. CCOC(=O)/C(=C\Nc1ccccc1Cl)C(=O)c1ccccc1Cl: Not satisfied
5. CC(C)C(C)NC(=O)/C(=C\Nc1ccc(Cl)cc1)C(=O)c1ccccc1Cl (stereo unspecified): Not satisfied
6. O=C(NC1CCC1)/C(=C\Nc1ccc(Cl)cc1)C(=O)c1ccccc1Cl: Satisfied
7. CCCNC(=O)/C(=C\Nc1ccc(Cl)cc1)C(=O)c1ccccc1Cl: Satisfied
8. CCOC(=O)/C(=C\Nc1ccc(F)cc1)C(=O)c1ccccc1Cl: Not satisfied
9. CCOC(=O)/C(=C\Nc1ccc(C(C)C)cc1)C(=O)c1ccccc1Cl: Not satisfied
10. CCOC(=O)/C(=C\Nc1ccc(F)cc1)C(=O)c1ccc(Cl)cc1: Not satisfied
11. CC(C)NC(=O)/C(=C\Nc1ccc(Cl)cc1)C(=O)c1ccccc1Cl: Satisfied
12. O=C(NC1CC1)/C(=C\Nc1ccc(Cl)cc1)C(=O)c1ccccc1Cl: Satisfied
13. CCC(C)NC(=O)/C(=C\Nc1ccc(Cl)cc1)C(=O)c1ccccc1Cl (stereo unspecified): Satisfied
14. CCOC(=O)/C(=C\Nc1cccc(Cl)c1)C(=O)c1ccccc1Cl: Not satisfied
15. CCOC(=O)/C(=C\Nc1ccc(F)cc1)C(=O)c1cccc(Cl)c1: Not satisfied
16. O=C(NC1CCCC1)/C(=C\Nc1ccc(Cl)cc1)C(=O)c1ccccc1Cl: Satisfied
17. CCNC(=O)/C(=C\Nc1ccc(Cl)cc1)C(=O)c1ccccc1Cl: Satisfied

###

# Experiment Summary: Therapeutic index, ratio of light-dark MED to TD50 by rotarod test in non-Swiss Albino mouse at 3 mg/kg, po
# Assay type: organism-based
# Design: dose 3 mg/kg, route oral
# Study Conditions: in vivo, read-out: TI
Parameter Measured: selectivity ratio

1) CC(C)NC(=O)/C(=C\Nc1ccc(Cl)cc1)C(=O)c1ccccc1Cl: > 10

###

# Species: Rattus norvegicus
# Experiment Summary: Displacement of [35S]TBPS from GABAA receptor in Sprague-Dawley rat cortex membrane
# Assay type: cell membranes
Label y when Imax < 90%; otherwise n.

1) CCOC(=O)/C(=C\Nc1ccc(Cl)cc1)C(=O)c1ccccc1Cl: n
2) CC(C)C(C)NC(=O)/C(=C\Nc1ccc(Cl)cc1)C(=O)c1ccccc1Cl (centres undefined): n
3) NC(=O)/C(=C\Nc1ccc(Cl)cc1)C(=O)c1ccccc1Cl: y
4) CNC(=O)/C(=C\Nc1ccc(Cl)cc1)C(=O)c1ccccc1Cl: y
5) CCOC(=O)/C(=C\Nc1ccc(F)cc1)C(=O)c1cc(F)c(Cl)cc1Cl: y
6) CCOC(=O)/C(=C\Nc1ccc(C(C)C)cc1)C(=O)c1ccccc1Cl: n
7) CC(C)NC(=O)/C(=C\Nc1ccc(Cl)cc1)C(=O)c1ccccc1Cl: y
8) C#Cc1ccc(N/C=C(\C(=O)OCC)C(=O)c2ccccc2Cl)cc1: n
9) CCOC(=O)/C(=C\Nc1ccc(C)cc1)C(=O)c1ccccc1Cl: n

###

# Experiment Summary: Displacement of [35S]TBPS from GABAA receptor in Sprague-Dawley rat cortex membrane
# Type: cell membranes
Entries and their IC50
Parameter Measured: IC50 (nM)

1. CCOC(=O)/C(=C\Nc1ccc(Cl)cc1)C(=O)c1ccccc1Cl: 90
2. CNC(=O)/C(=C\Nc1ccc(Cl)cc1)C(=O)c1ccccc1Cl: 160
3. CCC(CC)NC(=O)/C(=C\Nc1ccc(Cl)cc1)C(=O)c1ccccc1Cl: 80
4. CCOC(=O)/C(=C\Nc1ccc(F)cc1)C(=O)c1cc(F)c(Cl)cc1Cl: 130

###

# Species: Rattus norvegicus
# Experiment Summary: Displacement of [35S]TBPS from GABAA receptor in Sprague-Dawley rat cortex membrane
# Type: cell membranes
Parameter Measured: Imax

1) O=C(NC1CCC1)/C(=C\Nc1ccc(Cl)cc1)C(=O)c1ccccc1Cl: 88%
2) CCOC(=O)/C(=C\Nc1ccc(F)cc1)C(=O)c1cccc(Cl)c1: 90%
3) CCCNC(=O)/C(=C\Nc1ccc(Cl)cc1)C(=O)c1ccccc1Cl: 90%
4) O=C(NC1CCCC1)/C(=C\Nc1ccc(Cl)cc1)C(=O)c1ccccc1Cl: 88%
5) O=C(NC1CC1)/C(=C\Nc1ccc(Cl)cc1)C(=O)c1ccccc1Cl: 92%
